Test system: SK-OV-3 ovarian
Assay: NCI-60 one-dose screen, 48 h (100 = growth as untreated, 0 = no growth, -100 = all killed)
Conditions: 10 µM unless noted
About 83,000 compounds went through this panel and 20% of them were active in at least one assay; those are over-represented in the sample as a whole.
Threshold 90%: growth strictly smaller gives T, otherwise F.

Below are worked cases with known answers.
molecule	category.label
COc1ccc(OC)c(/C=C/C(=O)N/N=C/c2ccccc2)c1	T
COc1ccc(S(=O)(=O)n2cc(C3OC(c4cc(OC)c(OC)c(OC)c4)=NN3C(C)=O)c3ccccc32)cc1OC (centres undefined)	F
COC(=O)/C=C1\S/C(=N\Nc2ccc([N+](=O)[O-])cc2[N+](=O)[O-])N(C2CCCCC2)C1=O	F

Enquiry: Does CN(C(=O)NCc1cccc(F)c1Cl)[C@H](COC(=O)Nc1cc2ccccc2cn1)CC(O)CO (some centres undefined) have growth strictly under 90%?
Return: T

====

System: MDA-MB-435 melanoma
Assay: NCI-60 one-dose screen, 48 h (100 = growth as untreated, 0 = no growth, -100 = all killed)
Conditions: 10 µM unless noted
The panel holds about 83,000 compounds, 20% with a hit somewhere; the sample as a whole holds those more often.
quantity.name: growth (%)
Number only, in %; omit the unit.

compound	growth (%)
COc1cc(/C=C2\C(=O)Nc3ccc(Br)cc32)cc(OC)c1OC	21.2
CCOC(=O)c1nc(Nc2ccc(C(C)=O)cc2)sc1C	100
c1ccc2c(c1)Nc1ccncc1S2	121

Looking up OC(COc1ccccc1Cl)CN1CCN(c2cccc(Cl)c2)CC1 (stereo unspecified) , I found its growth recorded as 109

Looking up "O=C(N/N=C/c1c(Cl)cccc1Cl)c1ccc(C(F)(F)F)nc1Nc1cccc(C(F)(F)F)c1" , I found its growth recorded as 24.2

Looking up "COc1cc(CCCO)c(OC)c(OC)c1OC" , I found its growth recorded as 102

====

Consider the following molecules and their measured growth readings.
Test system: A549/ATCC NSCLC
Assay: NCI-60 one-dose screen, 48 h (100 = growth as untreated, 0 = no growth, -100 = all killed)
Conditions: 10 µM unless noted
Compounds without any hit were thinned out: in the full panel of roughly 83,000, 20% have a hit. Activity calls are given as the source filed them. How the source made its calls: active means growth percent below 10; inactive means the rest.

molecule	growth
BrCCCc1n(Cc2ccc3ccccc3c2)c2ccccc2[n+]1Cc1ccc2ccccc2c1	-54.1% (active)

Looking up "N#Cc1c(-c2ccc(Cl)cc2)nc2c(c(-c3ccccc3)nn2-c2ccccc2)c1-c1ccc(O)cc1" , I found its growth recorded as 41.9% (inactive)

Looking up COC(=O)C(Cc1ccccc1)NC(=O)NC(=O)NC(=O)CI (stereo unspecified) , I found its growth recorded as 99.8% (inactive)

Looking up CCCCC1CCCC12NC(=O)NC2=O (stereo unspecified) , I found its growth recorded as 117% (inactive)

Looking up "CCOC(=O)CCN(C(=O)Nc1ccccc1)C1CCCCC1" , I found its growth recorded as 132% (inactive)

Looking up O=C1NC(=O)C(Cn2cnc3ccccc32)N1 (stereo unspecified) , I found its growth recorded as 97.8% (inactive)

Looking up "CCOC(=O)c1cn2ncnc(Oc3ccc(NC(=O)NCCN4CCOCC4)c(Cl)c3)c2c1C" , I found its growth recorded as 99.2% (inactive)

Looking up "O=C1COCCN1c1ccc(NCc2cn(C(=O)c3ccc(Cl)cc3)c3ccccc23)cc1" , I found its growth recorded as 46.9% (inactive)

Looking up "COc1cc(C(=O)/C=C/c2c(Cl)nc3sccn23)cc(OC)c1OC" , I found its growth recorded as 83% (inactive)

Reference for the values: PubChem BioAssay (NCI)
